Entries and their log10 of IC50
system name: human neutrophil elastase (Homo sapiens)
Sequence (P08246 30-267): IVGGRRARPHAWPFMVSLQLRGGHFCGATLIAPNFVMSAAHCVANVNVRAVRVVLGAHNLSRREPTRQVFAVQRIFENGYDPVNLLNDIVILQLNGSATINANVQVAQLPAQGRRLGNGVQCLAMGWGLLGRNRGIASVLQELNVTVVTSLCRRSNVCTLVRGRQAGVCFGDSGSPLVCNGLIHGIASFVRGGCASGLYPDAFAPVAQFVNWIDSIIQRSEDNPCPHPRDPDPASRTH
method notes: Inhibitory activity on human neutrophil elastase (HNE) in vitro
particulars: human neutrophil elastase 0.2 U/ml, substrate MeO-Suc-Ala-Ala-Pro-Val-pNA 0.5 mM, 37° C., pH 7.5
recorded metric: log10 of IC50 (log10 of the value in nM)

CC(C)[C@H](NC(=O)c1cc(-c2ccccc2)on1)C(=O)N1CCC[C@H]1C(=O)N[C@H](C(=O)C(F)(F)F)C(C)C	0.96
Cc1cc(C(=O)N[C@H](C(=O)N2CCC[C@H]2C(=O)N[C@H](C(=O)C(F)(F)F)C(C)C)C(C)C)no1	1.38
Cc1c(C(=O)N[C@H](C(=O)N2CCC[C@H]2C(=O)N[C@H](C(=O)C(F)(F)F)C(C)C)C(C)C)cnn1-c1ccc(F)cc1	0.96
CC(C)[C@H](NC(=O)c1c[nH]cn1)C(=O)N1CCC[C@H]1C(=O)N[C@H](C(=O)C(F)(F)F)C(C)C [Comparative compound, reference compound]	1.89
Cc1c(C(=O)N[C@H](C(=O)N2CCC[C@H]2C(=O)N[C@H](C(=O)C(F)(F)F)C(C)C)C(C)C)cnn1C(C)(C)C	0.93
CC(C)[C@H](NC(=O)c1ccc2c(c1)nnn2C(C)C)C(=O)N1CCC[C@H]1C(=O)N[C@H](C(=O)C(F)(F)F)C(C)C	0.80
Cc1c(C(=O)N[C@H](C(=O)N2CCC[C@H]2C(=O)N[C@H](C(=O)C(F)(F)F)C(C)C)C(C)C)cnn1-c1ccccc1F	0.92
CC(C)[C@H](NC(=O)c1cc(C(C)(C)C)no1)C(=O)N1CCC[C@H]1C(=O)N[C@H](C(=O)C(F)(F)F)C(C)C	1.18
Cc1ccc(-n2ncc(C(=O)N[C@H](C(=O)N3CCC[C@H]3C(=O)N[C@H](C(=O)C(F)(F)F)C(C)C)C(C)C)c2C)cc1	1.00
COc1ccc(-n2ncc(C(=O)N[C@H](C(=O)N3CCC[C@H]3C(=O)N[C@H](C(=O)C(F)(F)F)C(C)C)C(C)C)c2C)cc1	0.92
CC(C)[C@H](NC(=O)c1cc(-c2ccccc2)no1)C(=O)N1CCC[C@H]1C(=O)N[C@H](C(=O)C(F)(F)F)C(C)C	1.18
Cc1nn(-c2ccccc2)c(C)c1C(=O)N[C@H](C(=O)N1CCC[C@H]1C(=O)N[C@H](C(=O)C(F)(F)F)C(C)C)C(C)C	0.99
Cc1cc2onc(C(=O)N[C@H](C(=O)N3CCC[C@H]3C(=O)N[C@H](C(=O)C(F)(F)F)C(C)C)C(C)C)c2cc1C	1.04
Cc1nsc(C)c1C(=O)N[C@H](C(=O)N1CCC[C@H]1C(=O)N[C@H](C(=O)C(F)(F)F)C(C)C)C(C)C	1.34

Cited source: patent US7067491B2
